# credit: patent EP4667466A1

Target: MLLT1 (Homo sapiens)
Construct: endogenous in cells; host or cells: MV4-11 (ATCC CRL-9591)
Sequence (Q03111 whole entry): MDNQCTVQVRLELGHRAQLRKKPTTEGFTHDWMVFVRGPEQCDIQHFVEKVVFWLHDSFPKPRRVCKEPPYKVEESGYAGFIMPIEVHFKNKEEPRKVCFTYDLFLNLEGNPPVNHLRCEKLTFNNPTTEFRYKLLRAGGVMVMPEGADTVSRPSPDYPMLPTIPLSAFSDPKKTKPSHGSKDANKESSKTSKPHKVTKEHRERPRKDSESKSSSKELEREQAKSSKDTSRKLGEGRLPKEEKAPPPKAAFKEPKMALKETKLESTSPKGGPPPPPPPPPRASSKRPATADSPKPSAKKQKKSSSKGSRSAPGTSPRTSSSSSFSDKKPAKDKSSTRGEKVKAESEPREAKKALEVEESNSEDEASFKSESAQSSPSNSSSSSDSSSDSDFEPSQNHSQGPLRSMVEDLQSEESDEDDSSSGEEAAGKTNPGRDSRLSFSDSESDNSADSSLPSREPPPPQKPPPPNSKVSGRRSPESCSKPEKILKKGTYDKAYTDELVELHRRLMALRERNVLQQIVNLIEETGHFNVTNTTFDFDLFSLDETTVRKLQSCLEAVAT
Assay: MLLT1 degradation assay (JESS automated chemiluminescent detection) in MV4-11 cells
Type: cell-based
Conditions: 0.1 µM, 24h, with respect to DMSO control
Description: MLLT1 degradation efficacy of compounds was tested in an automated chemiluminescent detection system (JESS, Cat# 004-650). MV4-11 (#CRL-9591, ATCC) cells were seeded at a density of 1.2 million cells/well in a non-treated 6-well cell culture plate in 2.4 mL of complete medium (IMDM + 10% FBS + 1X Penicillin-Streptomycin). […] Post run, data were analysed using "Compass for SW" software for chemiluminescent detection. […]
observation_type: inhibition at 0.1 µM

{"columns": ["molecule", "inhibition at 0.1 µM"],
 "data": [
  ["Cc1nn(CCCC#Cc2cccc3c2CN(C2CCC(=O)NC2=O)C3=O)c2cc(C(=O)Nc3cc4[nH]c([C@H]5CCCN5C)cc4cn3)ccc12 (some centres unmarked)", "≥ 75%"]
]}

Req: Give inhibition at 0.1 µM for Cc1nn(CCCCCCCC#Cc2cccc(N3CCC(=O)NC3=O)c2F)c2cc(C(=O)Nc3cc4[nH]c([C@H]5CCCN5C)cc4cn3)ccc12
Resp: 50 to 75%

Req: Give inhibition at 0.1 µM for Cc1nn(CCCCCCCC#Cc2cccc(C3CCC(=O)NC3=O)c2F)c2cc(C(=O)Nc3cc4[nH]c([C@H]5CCCN5C)cc4cn3)ccc12 (some centres unmarked)
Resp: ≥ 75%

Req: Give inhibition at 0.1 µM for Cc1nn(CCCCCCCC#Cc2cccc(C(=O)N[C@H]3CCC(=O)NC3=O)c2F)c2cc(C(=O)Nc3cc4[nH]c([C@H]5CCCN5C)cc4cn3)ccc12
Resp: 50 to 75%

Req: Give inhibition at 0.1 µM for Cc1nn(C2CCN(CC#Cc3cccc4c3CN(C3CCC(=O)NC3=O)C4=O)CC2)c2cc(C(=O)Nc3cc4[nH]c([C@H]5CCCN5C)cc4cn3)ccc12 (some centres unmarked)
Resp: ≥ 75%
